Listing: GI50 of selected compounds
# Test system: SN12C
# assay_procedure: NCI screen cytotoxicity, renal SN12C
# assay_setup: read-out: Cytotoxicity (GI50 in μM) renal SN12C; 50% growth inhibition

// known answers, use as guide
compound="Cl.NCCCn1c2c(c3ccc(NCC(=O)O)cc3c1=O)C(=O)c1ccccc1-2 [Compound 43 of (B), Hydrochloride]" assay_system=SN12C value_reported="0.49 µM"
compound="COc1ccc2c(c1)-c1c(c3ccc([N+](=O)[O-])cc3c(=O)n1CCCN)C2=O.Cl [Compound 51 of (B), Hydrochloride]" assay_system=SN12C value_reported="0.15 µM"

Please turn your attention to the following entry.
Input: Please report the recorded GI50 for `O=C1c2ccccc2-c2c1c1ccc([N+](=O)[O-])cc1c(=O)n2CCCO` .
Output: 0.47 µM
